I'd appreciate it if you could supply cell viability activity values for the items below.
Test system: HT29 sg-Ctrl (RNF43 wildtype)
Protocol details: cell viability activity relative to DMSO (negative = inhibition); higher = more viable cells (less growth inhibition)
Conditions: 5 µM; 96 h
One number for each entry, in %.

| Compound | cell viability activity (%) |
| --- | --- |
| Nc1nc(Cl)nc2c1ncn2[C@@H]1O[C@H](CO)[C@@H](O)[C@@H]1F | -63.4 |
| N[C@@H](Cn1ccc(=O)n(Cc2ccccc2C(=O)O)c1=O)C(=O)O | -34.1 |
| COc1cc(Nc2c(C#N)cnc3cc(OCCCN4CCN(C)CC4)c(OC)cc23)c(Cl)cc1Cl | -97.9 |
| CN1CCC[C@@H]1Cc1c[nH]c2ccc(CCS(=O)(=O)c3ccccc3)cc12 | -27.2 |
| CCCCCCCCCCCCCCCC[N+](C)(C)CCN(Cc1ccc(OC)cc1)c1ncccn1 | -94.5 |
| CCOc1cc2ncc(C#N)c(Nc3ccc(OCc4cccc(F)c4)c(Cl)c3)c2cc1NC(=O)/C=C/CN(C)C | -28.1 |
| C[C@H]1O[C@@H](O[C@H]2CC[C@@]3(C)[C@H](CC[C@@H]4[C@@H]3C[C@@H](O)[C@]3(C)[C@@H](C5=CC(=O)OC5)CC[C@]43O)C2)C[C@H](O)[C@@H]1O[C@H]1C[C@H](O)[C@H](O[C@H]2C[C@H](O)[C@H](O[C@@H]3O[C@H](CO)[C@@H](O)[C@H](O)[C@H]3O)[C@@H](C)O2)[C@@H](C)O1 | -91.5 |
| Nc1nc(Nc2ccc3c(c2)CCC(N2CCCC2)CC3)nn1-c1cc2c(nn1)-c1ccccc1CCC2 (stereo not drawn) | -31.9 |
| C=CC(=O)Nc1cc(Nc2nccc(-c3cn(C)c4ccccc34)n2)c(OC)cc1N(C)CCN(C)C | -50.6 |
| Nc1nc(=S)c2ncn([C@@H]3O[C@H](CO)[C@@H](O)[C@H]3O)c2[nH]1 | -76.6 |

Would you mind giving cell viability activity for every compound in the list below?
1. Cc1ccc(C(=O)N(CCCN)[C@@H](c2oc3cc(Cl)ccc3c(=O)c2Cc2ccccc2)C(C)C)cc1
2. CC(C)NCCCn1c(Sc2cc3c(cc2I)OCO3)nc2c(N)ncnc21

# output
-78.3
-85.8

----------
Tested on: HT29 RNF43 G659fs (RNF43 659mut, CRISPR-edited)
Protocol details: cell viability activity relative to DMSO (negative = inhibition); higher = more viable cells (less growth inhibition)
Conditions: 5 µM; 96 h
hey, just use Satisfied if measured cell viability activity is less than -60%, otherwise Not satisfied

Solved cases (3 shown):
| Molecule | Answer label |
| --- | --- |
| CC(C)NC[C@@H](C(=O)N1CCN(c2ncnc3c2[C@H](C)C[C@H]3O)CC1)c1ccc(Cl)cc1 | Not satisfied |
| CNC(=O)c1ccccc1Nc1cc(Nc2ccc(N3CCOCC3)cc2OC)ncc1C(F)(F)F | Satisfied |
| N[C@@H](Cn1ccc(=O)n(Cc2ccccc2C(=O)O)c1=O)C(=O)O | Not satisfied |

# input # check: cell viability activity < -60% for C#Cc1cccc(Nc2ncnc3cc(OC)c(OCCCCCCC(=O)NO)cc23)c1
# output Satisfied

# input In plain terms, does CN1CCN(Cc2ccc(Nc3ncc(Cl)c(Nc4ccccc4S(=O)(=O)N(C)C)n3)cc2)CC1 come in under -60% for cell viability activity?
# output Satisfied

# input Please determine if CCCCC(CC)CNC(=N)NC(=N)NCCCCCCNC(=N)NC(=N)NCC(CC)CCCC (stereo not drawn) is below -60% in terms of cell viability activity.
# output Satisfied

# input Determine if CCOc1cc2ncc(C#N)c(Nc3ccc(OCc4ccccn4)c(Cl)c3)c2cc1NC(=O)/C=C/CN(C)C shows cell viability activity strictly lower than -60%.
# output Not satisfied

# input Dear reviewer, please state whether C/C=C1\NC(=O)[C@H]2CSSCC/C=C/[C@H](CC(=O)N[C@H](C(C)C)C(=O)N2)OC(=O)[C@H](C(C)C)NC1=O has cell viability activity strictly beneath -60%.
# output Satisfied
